- Tested on: VchCAST RNA-guided transposition machinery (E. coli BL21(DE3) host, lacZ target)
- experimentalDetails: relative integration efficiency (T-LR orientation) vs wild-type transposon end (log2 (normalized fold change)); transposon end mutated: right end (5 bp flank + 75 bp right end); higher = more efficient transposition
recordedEndpoint: relative integration efficiency (log2)

recordSequence | recordedEndpoint | readoutValue
ACATTTGTTGATACAACCATAAAATGATAATTACACCCATAAATTGATAATGCTCACACCCATAAATTGATATTGCCTCTGATCATAGTCAGACCAACATTGCTACGACCCGTATTCGCACCGACAC | relative integration efficiency (log2) | 0.654
ACATTTGTTGATACAACCATAAAATGATAATTACACCCATATTAAGATAATTATCACACCCATAAATTGATATTGCCTCTGATCATAGTCAGACCAACATTGCTACGACCCGTATTCGCACCGACAC | relative integration efficiency (log2) | -0.688
ACATTTGTCGATACAACCCTAAAATGATAATTACACCCATAAATGGATAATTATCACACCCAATTTAACTATAACGCTCTGATCATAGTCAGACCAACATTGCTACGACCCGTATTCGCACCGACAC | relative integration efficiency (log2) | -0.544
ACATTTGTTGATACAACCATAAAATGATAATTACACCCATAAATTGATAATTATCACACCCATAAATTGATATTGCCTCTGATCAGGAATTGTGAGCGGATAACAATTTAGTCAGACGCACCGACAC | relative integration efficiency (log2) | 0.397
ACATTTGTTGATACAACCATAAAGTGATATTTACAACCATAAAGTGATATTTATCACAACCATAAGTTGATATTTTCTCTGATCATAGTCAGACCAACATTGCTACGACCCGTATTCGCACCGACAC | relative integration efficiency (log2) | -0.279
ACATTTGTTGATACAACCATAAAATGATAATTACACCCATAAATTGATATTGCTCACAACCATAAGTTGATATTTTCTCTGATCATAGTCAGACCAACATTGCTACGACCCGTATTCGCACCGACAC | relative integration efficiency (log2) | 0.538
ACATTTGTTGCGACAACCATAAAATGATAATTACACCCATAAATTGATAATTATCACACCCATAAATTGATATTGCCTCTGATCATAGTCAGACCAACATTGCTACGACCCGTATTCGCACCGACAC | relative integration efficiency (log2) | -1.69
ACATTTGTTGATACAACCATAAAATGATAATTACACCCATAAATTGATAATTATGTGTCCCATAAATTGATATTGCCTCTGATCATAGTCAGACCAACATTGCTACGACCCGTATTCGCACCGACAC | relative integration efficiency (log2) | 1.63
ACATTTGTTGATACACCCATAAATTGATAATTACACCCATAAATTGATAATTATCACAACCATAAGTTGATATTTTCTCTGATCATAGTCAGACCAACATTGCTACGACCCGTATTCGCACCGACAC | relative integration efficiency (log2) | -0.206
ACATTTGAAGATACAACCATAAAATGATAATTACACCCATAAATTGATAATTATCACACCCATAAATTGATATTGCCTCTGATCATAGTCAGACCAACATTGCTACGACCCGTATTCGCACCGACAC | relative integration efficiency (log2) | -0.786
ACATTTGTTGATACAACCATAAAATGATAATTACACCCATAAATTGATAATTATCACACCCATAAATTGATATTGAAGAGGATCATAGTCAGACCAACATTGCTACGACCCGTATTCGCACCGACAC | relative integration efficiency (log2) | -0.000932
ACATTTGTTGATACAACCATAAAATGATAATTAATAATTATTTATAATCAGCAACTCACCCATAAATTGATAATTATCAACAAACGCCCGGTCGCGGTACTCTGATCATAGTCAGACCAACATTGCT | relative integration efficiency (log2) | -0.174
ACATTTGTGGATACAACCATAAAATGATAATTACACCCATAAATTCATCATTATCACCCCCAATTTAACTATAACGCTCTGATCATAGTCAGACCAACATTGCTACGACCCGTATTCGCACCGACAC | relative integration efficiency (log2) | 1.38
ACATTTGTTGATACCACCATAAAATGGTAATTCCACCCATAAATTGATAATTATCACACCCAATTTAACTATAACGCTCTGATCATAGTCAGACCAACATTGCTACGACCCGTATTCGCACCGACAC | relative integration efficiency (log2) | 2.06
ACATTAGTGGATACAACCATAAAATGATAATTACACCCATAAATTGATCATTATCACACCCAATTTAACTATAACGCTCTGATCATAGTCAGACCAACATTGCTACGACCCGTATTCGCACCGACAC | relative integration efficiency (log2) | -5.22
ACATTTGTTGATACAACCATAAAATGATAATTACACCCATAAATTGATAATTATCACACCCATAAATTGATATTGCCTCTGATAACTTCGTATAATGTATGCTATACGAAGTTATTCGCACCGACAC | relative integration efficiency (log2) | 0.719
ACATTTGTTGATACAACCATAAAATGATAATTACAACCATAAGTTGATATTTTTCACACCCATAAATTGATATTGCCTCTGATCATAGTCAGACCAACATTGCTACGACCCGTATTCGCACCGACAC | relative integration efficiency (log2) | 0.0596
ACATTTGTTTATACAACCATAAAATGATAATTACACCCATAAATTCATTATTATCACACCCAATTTAACTATAACGCTCTGATCATAGTCAGACCAACATTGCTACGACCCGTATTCGCACCGACAC | relative integration efficiency (log2) | -0.961
ACATTTGCTGATACTACCATATAATGATAATAACACCCCTAAAATGATAATTATCACACCCAATTTAACTATAACGCTCTGATCATAGTCAGACCAACATTGCTACGACCCGTATTCGCACCGACAC | relative integration efficiency (log2) | -2.64
ACATTTGTCGATACAACCATAAAACGATAATTACACCCATAAATGGATCATTATCACACCCAATTTAACTATAACGCTCTGATCATAGTCAGACCAACATTGCTACGACCCGTATTCGCACCGACAC | relative integration efficiency (log2) | 0.741

* * *

Consider the following sequences and their measured relative integration efficiency (log2) readings.
- System: VchCAST RNA-guided transposition machinery (E. coli BL21(DE3) host, lacZ target)
- experimentalDetails: relative integration efficiency (T-LR orientation) vs wild-type transposon end (log2 (normalized fold change)); transposon end mutated: right end (5 bp flank + 75 bp right end); higher = more efficient transposition

recordSequence | relative integration efficiency (log2)
ACATTTGTTGATACAACCATAAAATGATAATTACACCCATAAATTGATAATTATCACACCCATAAATTGATATTGCCTCTCCGACCCGGAAGAGGGCGCCTAGAATTGGGAGTGGTCGCACCGACAC | 0.134
ACATTTGTTGATACAACCATAAAGTGATATTTACAACCATATATTGATATCTCTCACAACCATAAAATGATAATTACTCTGATCATAGTCAGACCAACATTGCTACGACCCGTATTCGCACCGACAC | -0.162
ACATTTGTTGATACAACCATAAAATGATAATTACACCCATAAATTGATAATTATCACACCCATAAATTGATATTGCCTCTGGCTAGCATTATACCTAGGACTGAGCTAGCTGTCAACGCACCGACAC | 1.91
ACATTTGTTGTAACAACCATAAAATGATAATTACACCCATAAATTGATAATTATCACACCCATAAATTGATATTGCCTCTGATCATAGTCAGACCAACATTGCTACGACCCGTATTCGCACCGACAC | -1.09
ACATTTGTTCATCCAACCATAAAATGATAATTACACCCATAAATTCATAATTATCACACCCAATTTAACTATAACGCTCTGATCATAGTCAGACCAACATTGCTACGACCCGTATTCGCACCGACAC | -1.1
ACATTTGTTCATACAACCATAAAATGATAATTACCACCCCTACATTGATAATTATCACACCCATTTAACTATAACGCTCTGATCATAGTCAGACCAACATTGCTACGACCCGTATTCGCACCGACAC | -3.25
ACATTTGTTGATACAACCATAAAATGATAATTAATAATTCACCCATAAATTGATAATTATCAACAAACGCCCGGTCGCGGTACTCTGATCATAGTCAGACCAACATTGCTACGACCCGTATTCGCAC | 1.02
ACATTTGTCGATACAACCATAAAATGATAATTACACCCATAAATGGATAATTATCACCCCCAATTTAACTATAACGCTCTGATCATAGTCAGACCAACATTGCTACGACCCGTATTCGCACCGACAC | 1.38
ACATTTGTTGATACAACCATAAAATGATAATTAATAATTATTTATAATCAGCACACCCATAAATTGATAATTATCACACCCATAAATTGATATTGCCTCTGATCATAGTCAGACCAACATTGCTACG | -2.77
ACATTTGTTGATACAACCATAAAATGATAATTACACCCATAAATTGATAATTATCACACCCAGCCCGGTCGCGGTAAGAGGATCATAGTCAGACCAACATTGCTACGACCCGTATTCGCACCGACAC | 2.65
